# System: SR leukemia
# ASSAY: NCI-60 one-dose screen, 48 h (100 = growth as untreated, 0 = no growth, -100 = all killed)
# CONDITIONS_USED: 10 µM unless noted
This is part of a sample that, as a whole, favours compounds with a hit. Of some 83,000 tested, about 20% had one in any assay. Calls of active or inactive are those of the source. Rule for the calls: active = growth percent below 10; inactive = the rest.
PROPERTY: growth

Previously resolved entries follow.
CCCCCCCCCC[N+](C)(C)C :: 20.2% (inactive)
COc1ccc(-c2nc(SCC(C)C)nc(Nc3ccc(C(=O)O)cc3)c2C#N)cc1 :: 82.5% (inactive)
CC(=O)O.[In] :: 93.4% (inactive)
CCOC(=O)c1cc(C(=O)c2ccc(Br)cc2)n2cc(C)cc(C)c12 :: 98.1% (inactive)
COc1cc2c(c3c1c(=O)c1cccc(F)c1n3C)C=CC(C)(C)O2 :: 48.8% (inactive)

Asked: Find the recorded growth belonging to `Cc1ccc(NCc2cn(-c3ccc(C(=O)O)cc3)nc2-c2ccc(C(=O)O)cc2)cc1` and report it.
Given back: 103% (inactive)

Asked: Find the recorded growth belonging to `CCCCCCCCCCCCCCCCCC1=NCCN1CCNC(C)=O` and report it.
Given back: 19.3% (inactive)

Asked: Find the recorded growth belonging to `Brc1ccc(-c2nc3ccccc3s2)cc1` and report it.
Given back: 86.9% (inactive)

Asked: Find the recorded growth belonging to `c1ccc(Nc2ncc3c(n2)-c2cccn2CC3)cc1` and report it.
Given back: 101% (inactive)

Asked: Find the recorded growth belonging to `Cn1cnc2nc[nH]c2c1=S` and report it.
Given back: 89.6% (inactive)

###

# System: SK-MEL-5 melanoma
# ASSAY: NCI-60 one-dose screen, 48 h (100 = growth as untreated, 0 = no growth, -100 = all killed)
# CONDITIONS_USED: 10 µM unless noted
Compounds without any hit were thinned out: in the full panel of roughly 83,000, 20% have a hit.
PROPERTY: growth (%)
Please reply with the bare figure in % and do not write the unit itself.

Previously resolved entries follow.
CCCCCCCCCCCCCCCCNC(=S)N/N=C/c1ccc(O)cc1O :: 63.4
COC1(OC)N=C(N)C2(C#N)C3(C(=O)Nc4ccccc43)C12C#N (stereo not drawn) :: 81.8
CC(=O)CC(=O)OC/C=C(/C)CCC=C(C)C :: 99.6
CCCCCCNC(=O)Oc1ccc(/C(=C(/C)Cc2ccc(OC)cc2)c2ccc(OCCN3CCCCC3)cc2)cc1 :: 80.4
S=C(N/N=C/c1cc(Cl)cc(Cl)c1)NC12CC3CC(CC(C3)C1)C2 :: 97
CC1C(=O)CCCC1=O :: 106
O=C1C=C(OCC=C(C(F)(F)F)C(F)(F)F)c2ccccc2C1=O :: 33.5
COc1cccc2c1nc1cccc(OC)c1[n+]2[O-] :: 62

Asked: Find the recorded growth belonging to CCCCCCCCCCC1OC(C)CC(C)O1 (stereo not drawn) and report it.
Given back: 107

Asked: Find the recorded growth belonging to `O=C(N/N=C/c1cc(Cl)ccc1O)C(=O)N/N=C/c1cc(Cl)ccc1O` and report it.
Given back: 56.3

Asked: Find the recorded growth belonging to `COc1ccc2sc(-n3nc4nc5n(c(=O)c4c3N)-c3ccccc3Sc3ccccc3-5)nc2c1` and report it.
Given back: 41.1

Asked: Find the recorded growth belonging to `O=C1c2cc([N+](=O)[O-])ccc2-c2cc(Cl)c(NC(=O)C(F)(F)F)cc21` and report it.
Given back: 100

Asked: Find the recorded growth belonging to `CCCCCCNc1nc(N2CCOCC2)c2[nH]c(NCCCCCC)nc2n1` and report it.
Given back: -90.6

###

# Tested on: HT29 colon
# ASSAY: NCI-60 one-dose screen, 48 h (100 = growth as untreated, 0 = no growth, -100 = all killed)
# CONDITIONS_USED: 10 µM unless noted
About 83,000 compounds went through this panel and 20% of them were active in at least one assay; those are over-represented in the sample as a whole.
In this section we review reported growth values for a set of molecules.
Please reply with the bare figure in % and do not write the unit itself.

Previously resolved entries follow.
O=C1OC(c2ccc(-c3ccccc3)cc2)=C/C1=C/c1c2ccccc2cc2ccccc12 :: 103
CCC(C)(C)c1ccc(OCCCCCCN2CCN(c3ccc(C)c(Cl)c3)CC2)cc1 :: 82.8
C/C=C/C/C=C/[C@H](C)C[C@H](O)[C@@H]1C[C@@H]2O[C@H]2/C=C/[C@@H]2OC(C)(C)O[C@H]2/C=C/C[C@H](C)CC(=O)O1 :: 28.1

Asked: Find the recorded growth belonging to `CC(=O)OCC(=O)[C@@]1(O)[C@H](C)C[C@H]2[C@@H]3C=C(C)C4=Cc5c(cnn5-c5ccc(F)cc5)C[C@]4(C)[C@H]3[C@@H](O)C[C@@]21C` and report it.
Given back: -43.4

###

# Test system: HCC-2998 colon
# ASSAY: NCI-60 one-dose screen, 48 h (100 = growth as untreated, 0 = no growth, -100 = all killed)
# CONDITIONS_USED: 10 µM unless noted
# Description: Growth inhibition of the HCC-2998 human tumor cell line is measured as a screen for anti-cancer activity. Cells are grown in 96 well plates and exposed to the test compound for 48 hours. Compounds are tested at a single concentration, which is 10^-5 M for most compounds. The reported endpoint is percent growth (GI% or GIPRCNT), where numbers from 0 - 100% represent growth inhibition, and numbers from -100% - 0 represent cell death. For example, a value of 40 represents 60% growth inhibition. […]
About 83,000 compounds went through this panel and 20% of them were active in at least one assay; those are over-represented in the sample as a whole.
PROPERTY: growth (%)
Please reply with the bare figure in % and do not write the unit itself.

N#CCCCCCCCCCCC#N :: 95
COc1cc(NC(C)CCCN)c2nc(C)ccc2c1OC (centres undefined) :: 87.2
CCCCN(CCCC)CCCNc1c2c(nc3ccc(Cl)cc13)CCCC2 :: 82.8
O=C(O)c1ccc(-c2nn(-c3ccc(C(=O)O)cc3)cc2CNc2ccc(Br)cc2)cc1 :: 102
CC(=O)NCCN :: 97.4

Asked: Find the recorded growth belonging to `C/C(=N\Nc1ccc(Cl)cn1)c1ccccn1` and report it.
Given back: 27

Asked: Find the recorded growth belonging to `Oc1ccccc1/C=N/N=C/c1c(O)ccc2ccccc12` and report it.
Given back: 91.2

Asked: Find the recorded growth belonging to `CCOC(=O)/C(C#N)=C(/CC)OCC` and report it.
Given back: 113

Asked: Find the recorded growth belonging to C=C1CCC2C3(C)COC(c4ccccc4)OC3CCC2(C)C1C/C=C1/C(=O)OCC1O (centres undefined) and report it.
Given back: 94.1

###

# System: SNB-75 CNS
# ASSAY: NCI-60 one-dose screen, 48 h (100 = growth as untreated, 0 = no growth, -100 = all killed)
# CONDITIONS_USED: 10 µM unless noted
This is part of a sample that, as a whole, favours compounds with a hit. Of some 83,000 tested, about 20% had one in any assay.
PROPERTY: growth (%)
Please reply with the bare figure in % and do not write the unit itself.

Previously resolved entries follow.
COc1ccc(CN2C(=O)/C(=C\C(=O)c3ccc(OCCN4CCCC4)cc3)c3ccccc32)cc1 :: 73.2
CC(=O)O.[In] :: 90.6
Brc1ccc(-c2nc3ccccc3s2)cc1 :: 80.6

Asked: Field: growth (SNB-75 CNS). Entry: `O=C(Nc1ccc(-n2cc(-c3ccncc3)c(-c3ccc(Cl)c(O)c3)n2)cc1)c1cc(C(F)(F)F)cc(C(F)(F)F)c1`
Given back: 12.2

Asked: Field: growth (SNB-75 CNS). Entry: `Cc1ccc(C(=O)Nc2ccc(CN3CCN(C)CC3)c(C(F)(F)F)c2)cc1C#Cc1cncc2ncccc12`
Given back: -83.9

Asked: Field: growth (SNB-75 CNS). Entry: `N=C(c1ccccc1)N(Cc1ccccc1)Cc1ccccc1`
Given back: 97.7

###

# Test system: KM12 colon
# ASSAY: NCI-60 one-dose screen, 48 h (100 = growth as untreated, 0 = no growth, -100 = all killed)
# CONDITIONS_USED: 10 µM unless noted
Compounds without any hit were thinned out: in the full panel of roughly 83,000, 20% have a hit.
In this section we review reported growth values for a set of molecules.
Please reply with the bare figure in % and do not write the unit itself.

N#Cc1ccc(NC2c3ccccc3CC2O)cc1 (stereo not given) :: 112
O=C1N/C(=N\c2nnc(-c3ccc(O)cc3)s2)S/C1=C\c1ccccc1O :: 96.7
CCCC(=O)NNc1[nH]c(-c2cc(OC)c(OC)c(OC)c2)cc1C(=O)OCC :: 125
CCOC(=O)C1C(=O)C(=O)N(C(C)C)C1C(=O)OCC (stereo not given) :: 98.9
C=CC1CN2CCC1CC2C(O)c1ccnc2ccc(OC)cc12 (stereo not given) :: 112

Asked: Find the recorded growth belonging to `Cc1c(O)c(N=Nc2ccc(C(=O)O)c(O)c2)c2ccccc2c1O` and report it.
Given back: 98.3
